target: OATP1B1 (Homo sapiens); assay: Calculation of R-values; settings: Eq. 3 (Ki), ka = 0.03, Fa published value (lopinavir Fa = 1)
Sequence (Q9Y6L6 whole entry): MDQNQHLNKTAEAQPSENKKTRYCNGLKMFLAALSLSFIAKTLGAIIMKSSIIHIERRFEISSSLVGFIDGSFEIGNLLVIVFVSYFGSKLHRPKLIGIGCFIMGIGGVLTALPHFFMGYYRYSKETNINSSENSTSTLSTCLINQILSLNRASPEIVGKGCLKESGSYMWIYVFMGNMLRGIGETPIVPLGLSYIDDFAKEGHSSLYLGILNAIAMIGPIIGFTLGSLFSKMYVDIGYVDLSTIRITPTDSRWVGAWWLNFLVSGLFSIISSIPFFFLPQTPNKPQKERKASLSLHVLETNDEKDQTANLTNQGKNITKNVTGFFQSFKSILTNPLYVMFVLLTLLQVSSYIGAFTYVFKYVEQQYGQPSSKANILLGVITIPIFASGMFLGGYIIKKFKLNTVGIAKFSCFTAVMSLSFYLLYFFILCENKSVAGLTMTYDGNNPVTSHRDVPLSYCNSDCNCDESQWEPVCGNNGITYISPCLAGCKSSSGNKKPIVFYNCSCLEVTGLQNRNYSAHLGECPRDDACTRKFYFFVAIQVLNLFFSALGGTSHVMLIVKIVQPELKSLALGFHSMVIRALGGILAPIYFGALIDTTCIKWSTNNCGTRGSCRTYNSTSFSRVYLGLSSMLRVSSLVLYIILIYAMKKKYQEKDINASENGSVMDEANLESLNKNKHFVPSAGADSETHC
QUANTITY_NAME: R-value E
No unit in the answer, only the number.

COC(=O)N[C@H](C(=O)N[C@@H](Cc1ccccc1)[C@@H](O)CN(Cc1ccc(-c2ccccn2)cc1)NC(=O)[C@@H](NC(=O)OC)C(C)(C)C)C(C)(C)C [Atazanavir]    2.87
Cc1ccc(C)c(OCCCC(C)(C)C(=O)O)c1 [Gemfibrozil]    1.11
Cc1cccc(C)c1OCC(=O)N[C@@H](Cc1ccccc1)[C@@H](O)C[C@H](Cc1ccccc1)NC(=O)[C@H](C(C)C)N1CCCNC1=O [Lopinavir]    2.74

Could you now consider this next molecule?
Task item: Return R-value E (reported value) for this molecule: CC(C)CN(C[C@@H](O)[C@H](Cc1ccccc1)NC(=O)O[C@H]1CCOC1)S(=O)(=O)c1ccc(N)cc1 [Amprenavir]
Reply: 1.34
